target: Peroxisome proliferator-activated receptor gamma (Homo sapiens) (UniProt P37231); assay: compounds enhancing SRC-2 coactivator binding to PPARgamma – biochemical, HTS, primary screen (AID 1032); settings: PPARgamma LBD-SRC-2 recruitment, at 8 µM, active compounds read high;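 note: 0% = vehicle and 100% = reference agonist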
Sequence (P37231 whole entry, looked up, the tested form may be a part): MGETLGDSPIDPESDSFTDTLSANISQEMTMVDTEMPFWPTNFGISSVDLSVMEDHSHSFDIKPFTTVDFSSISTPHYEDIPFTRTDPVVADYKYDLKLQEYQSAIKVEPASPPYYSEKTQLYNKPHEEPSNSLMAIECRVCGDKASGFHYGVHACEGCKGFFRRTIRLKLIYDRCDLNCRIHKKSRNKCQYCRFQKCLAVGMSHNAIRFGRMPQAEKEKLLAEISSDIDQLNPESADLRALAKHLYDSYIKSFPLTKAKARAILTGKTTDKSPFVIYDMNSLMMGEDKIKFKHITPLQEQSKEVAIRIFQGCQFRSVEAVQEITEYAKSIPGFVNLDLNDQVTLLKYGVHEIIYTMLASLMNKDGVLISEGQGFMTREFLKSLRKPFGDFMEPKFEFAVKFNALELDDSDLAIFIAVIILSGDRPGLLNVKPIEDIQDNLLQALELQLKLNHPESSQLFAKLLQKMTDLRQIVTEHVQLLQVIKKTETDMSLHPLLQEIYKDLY
About 670 (0.34%) of roughly 200,000 compounds were called active. The sample as a whole holds a higher share of actives than the screen did.
Entries and their activation
Could you give me the number in %? Just the number is fine.

## Task Query: activation; subject: Cc1ccc(-c2csc(SCC(=O)Nc3cc(C)on3)n2)cc1
## Result -2.51

## Task Would you kindly share the measured activation for COc1ccc(OC)c(C(=O)CSc2nnc(-c3cccs3)o2)c1 ?
## Result 10.1

## Task Can you share its activation? I mean this compound: CCN(CC)CCCNC(=O)CCc1ccccc1
## Result 9.5

## Task So what does the record say about activation for CC(C(=O)N=Nc1c(O)n(C)c2ccc(Br)cc12)n1cnc2ccccc2c1=O (stereo unspecified) ?
## Result 2.86

## Task Returns the measured activation for the input compound. Input: CCN(CC)CCCNC(=O)c1cc(-c2cccc(Cl)c2)on1
## Result 0.37

## Task # query: activation of entry Cc1cc(NC(=O)CSc2nnc(Nc3ccccc3F)s2)no1
## Result 0.38
